Test system: Staphylococcus aureus (ATCC29213)
Assay: In-vitro anti-bacterial microtitre plate assay, IC90 determination, Staphylococcus aureus
Assay type: cell-based
Conditions: 90% inhibitory concentration for bacterial growth; Staphylococcus aureus ATCC29213; 24 hours, resazurin fluorescence
ASSAY_READOUT: IC90 STA 29213 (µg/mL)
One number for each entry, in µg/mL.

Worked cases, answers included:
COc1nc2ccc(-c3cc4ccccc4o3)cc2cc1C(O)(CCCN(C)C)c1cccc2ccccc12 (stereo not drawn)    3.66
COc1nc2ccc(Br)cc2cc1C(O)(CCCCCN(C)C)c1cccc2ccccc12 (stereo not drawn)    8.04
COc1nc2ccc(-c3ccccc3)cc2cc1C(O)(CCCCCN(C)C)c1cccc2ccccc12 (stereo not drawn)    8.00
COc1nc2ccc(-c3cccnc3)cc2cc1C(O)(CCCCCN(C)C)c1cccc2ccccc12 (stereo not drawn)    8.01
COc1nc2ccc(-c3cccs3)cc2cc1C(O)(CCCCCN(C)C)c1cccc2ccccc12 (stereo not drawn)    51.07

Hi! Can you tell me IC90 STA 29213 for each of these molecules?
1. COc1ccccc1-c1ccc2nc(OC)c(C(O)(CCCCCN(C)C)c3cccc4ccccc34)cc2c1 (stereo not drawn)
2. COc1ccccc1-c1ccc2nc(OC)c(C(O)(CCCN(C)C)c3cccc4ccccc34)cc2c1 (stereo not drawn)
3. COc1nc2ccc(-c3cccnc3)cc2cc1C(O)(CCCCN(C)C)c1cccc2ccccc12 (stereo not drawn)
4. COc1nc2ccc(Br)cc2cc1C(O)(CCCCN(C)C)c1cccc2ccccc12 (stereo not drawn)
5. COc1nc2ccc(-c3cccnc3)cc2cc1C(O)(CCCN(C)C)c1cccc2ccccc12 (stereo not drawn)
6. COc1nc2ccc(-c3ccoc3)cc2cc1C(O)(CCCCN(C)C)c1cccc2ccccc12 (stereo not drawn)

[out]
1. 8.47
2. 1.60
3. 49.16
4. 39.20
5. 7.57
6. 7.62

Hi! Can you tell me IC90 STA 29213 for each of these molecules?
1. COc1nc2ccc(-c3ccoc3)cc2cc1C(O)(CCCCCN(C)C)c1cccc2ccccc12 (stereo not drawn)
2. COc1nc2ccc(-c3cc4ccccc4o3)cc2cc1C(O)(CCCCCN(C)C)c1cccc2ccccc12 (stereo not drawn)

[out]
1.56
1.72

Hi! Can you tell me IC90 STA 29213 for each of these molecules?
1. COc1nc2ccc(-c3ccccc3)cc2cc1C(O)(CCCCN(C)C)c1cccc2ccccc12 (stereo not drawn)
2. COc1ccccc1-c1ccc2nc(OC)c(C(O)(CCCCN(C)C)c3cccc4ccccc34)cc2c1 (stereo not drawn)

[out]
1. 38.97
2. 8.25
